tested_system: PqsR (Pseudomonas aeruginosa, UniProt Q9I4X0)
Construct: expressed in transfected cells; host or cells: E. coli DH5α carrying plasmid pEAL08-2
Sequence (Q9I4X0 whole entry): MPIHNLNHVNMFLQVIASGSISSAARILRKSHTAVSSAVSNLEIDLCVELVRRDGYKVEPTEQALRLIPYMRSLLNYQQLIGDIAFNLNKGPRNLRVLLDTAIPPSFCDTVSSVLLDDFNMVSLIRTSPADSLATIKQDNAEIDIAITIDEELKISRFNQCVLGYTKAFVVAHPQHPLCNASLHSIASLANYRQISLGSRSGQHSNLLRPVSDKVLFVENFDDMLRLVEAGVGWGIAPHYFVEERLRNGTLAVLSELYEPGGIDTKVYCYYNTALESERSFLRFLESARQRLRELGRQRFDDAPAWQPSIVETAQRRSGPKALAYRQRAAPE
experimental_details: cell-based
assay_context: read-out: Inhibition of PqsR stimulation induced by 50 nM PQS in the presence of test compd. (full inhibition = 1.00)
Could you please report measured inhibition at 0.05 µM for the items listed next?
One number for each entry, in %.

Please review the entries below; each comes with its answer.
| compound | recorded_number |
| --- | --- |
| CCCCCCCc1[nH]c2ccccc2c(=O)c1CO | 5 |
| CCOCCCCc1[nH]c2ccc([N+](=O)[O-])cc2c(=O)c1C(=O)OCC | 2 |
| CCCCCCCc1[nH]c2ccc([N+](=O)[O-])cc2c(=O)c1CO | 45 |

Would you mind giving inhibition at 0.05 µM for every compound in the list below?
1. CCCCCCCc1[nH]c2ccccc2c(=O)c1[N+](=O)[O-]
2. CCCCCOCc1cc(=O)c2cc(C(F)(F)F)ccc2[nH]1 [Ref. 4, reference compound]

Reply text:
1: 14; 2: 29

###

tested_system: PqsR (Pseudomonas aeruginosa, UniProt Q9I4X0)
Construct: expressed in transfected cells; host or cells: E. coli DH5α carrying plasmid pEAL08-2
experimental_details: cell-based
assay_context: read-out: Inhibition of PqsR stimulation induced by 50 nM PQS in the presence of test compd. (full inhibition = 1.00)
Label T for high-side inhibition at 0.05 µM (at or above 20%) and F for low-side inhibition at 0.05 µM (below it).

Examples with answers:
| molecule | label |
| --- | --- |
| CCCCCCCc1[nH]c2ccccc2c(=O)c1C(=O)NO [Compound 8] | F |
| CCCCCCCc1[nH]c2ccc([N+](=O)[O-])cc2c(=O)c1C(=O)OCC [Compound 2] | F |
| CCCCCCCc1[nH]c2ccccc2c(=O)c1C(=O)OCC [Compound 4] | F |
| CCCCCCCc1[nH]c2ccncc2c(=O)c1C(=O)OCC [Compound 5] | T |
| CCCCCCCc1[nH]c2ccc([N+](=O)[O-])cc2c(=O)c1C(=O)NO [Compound 10] | T |
| CCCCCCCc1cc(=O)c2cc(C(F)(F)F)ccc2n1C [Ref. 1, reference compound] | T |
| CCCCCCCc1[nH]c2ccc([N+](=O)[O-])cc2c(=O)c1C(=O)O [Compound 12] | F |
| CCCCCCCc1[nH]c2ccncc2c(=O)c1C(=O)O [Compound 7] | F |

Let's switch to this molecule now.
Inquiry: # check: inhibition at 0.05 µM of CCCCCCCc1cc(=O)c2cnccc2[nH]1 [Ref. 9, 2-Heptyl-1,6-naphthyridin-4(1H)-one, reference compound] is greater than or equal to 20%
Reply text: F

###

tested_system: PqsR (Pseudomonas aeruginosa, UniProt Q9I4X0)
Construct: expressed in transfected cells; host or cells: E. coli DH5α carrying plasmid pEAL08-2
experimental_details: cell-based
assay_context: read-out: Inhibition of PqsR stimulation induced by 50 nM PQS in the presence of test compd. (full inhibition = 1.00)
Label label 1 for high-side inhibition at 5 µM (at or above 30%) and label 0 for low-side inhibition at 5 µM (below it).

Examples with answers:
| compound | label |
| --- | --- |
| CCCCCCCc1[nH]c2ccccc2c(=O)c1CO | label 0 |
| CCCCCOCc1cc(=O)c2cc(C(F)(F)F)ccc2[nH]1 [Ref. 4, reference compound] | label 1 |

Inquiry: # check: inhibition at 5 µM of "CCCCCCCc1[nH]c2ccc([N+](=O)[O-])cc2c(=O)c1C(=O)OCC" is greater than or equal to 30%
Reply text: label 0

Inquiry: # check: inhibition at 5 µM of "CCCCCCCc1[nH]c2ccc([N+](=O)[O-])cc2c(=O)c1C(=O)NO" is greater than or equal to 30%
Reply text: label 1

Inquiry: # check: inhibition at 5 µM of CCCCCCCc1cc(=O)c2cc(C(F)(F)F)ccc2n1C [Ref. 1, reference compound] is greater than or equal to 30%
Reply text: label 1

Inquiry: # check: inhibition at 5 µM of "CCCCCCCc1[nH]c2ccccc2c(=O)c1C(=O)NO" is greater than or equal to 30%
Reply text: label 0

Inquiry: # check: inhibition at 5 µM of "CCCCCCCc1[nH]c2ccncc2c(=O)c1C(=O)OCC" is greater than or equal to 30%
Reply text: label 1

Inquiry: # check: inhibition at 5 µM of CCCCCCCc1cc(=O)c2cnccc2[nH]1 [Ref. 9, 2-Heptyl-1,6-naphthyridin-4(1H)-one, reference compound] is greater than or equal to 30%
Reply text: label 0
